- method: binders of probe aFGF10 on microarray, primary screen, stem cell growth factor project, biochemical, small-molecule microarray, fluorescence 635/667 (AID 1071);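 note: score merges 667 nm spot intensity and signal to noise from triplicate slides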
- run conditions: higher = more signal
// label = Satisfied if composite z-score is not less than 0.7, otherwise Not satisfied

Example entries and their recorded answers appear below.
CC(=O)c1ccc(C(O)C2C=CC3C(=O)N(c4ccccc4)C(=O)C3N2Nc2ccc(C#N)cc2)cc1 (stereo not given)	Not satisfied
C[C@]1(C(=O)NC2CC2)c2ccccc2C(=O)N(Cc2ccccc2)[C@H]1c1ccc(CO)cc1	Not satisfied

Hi, just wondering whether C=CCC(OC(C)=O)[C@@H]1[C@@H](N(Cc2cccc3ccccc23)C(=O)c2cccc3ccccc23)c2cc(OCCCO)ccc2N1C(=O)c1ccc(-c2ccccc2)cc1 (stereo not given in full) shows composite z-score of 0.7 or higher.
Not satisfied

Assess whether reported composite z-score for OCCCC1=CC(c2ccc(CN3CCCC3)cc2)N(Cc2sc3ccccc3c2Cl)CC1 (stereo not given) sits at 0.7 or higher.
Satisfied

Where do these numbers come from? They come from PubChem BioAssay.
